Measured values drawn from patent US20100298141A1 for this set.

Recorded measurements of Cupgrass, Woolly plant response rating, one per entry
# Tested on: woolly cupgrass
# Test Name: Test C pre-/postemergence test
# Type: in vivo, Eriochloa villosa
# Measurement Conditions: preemergence, 250 g ai/ha; scale 0 (no effect) to 100 (complete control)

Completed entries (count: 10):
>  <Compound>
Cn1nc(C(F)(F)F)c(C[S+]([O-])c2cc(Cl)cc[n+]2[O-])c1Cl (racemic)

>  <Tested System>
woolly cupgrass

>  <Cupgrass, Woolly plant response rating>
85

$$$$
>  <Compound>
CCc1cc[n+]([O-])c(S(=O)(=O)Cc2c(C(F)(F)F)nn(C)c2OCC(F)(F)F)c1

>  <Tested System>
woolly cupgrass

>  <Cupgrass, Woolly plant response rating>
100

$$$$
>  <Compound>
Cn1nc(C(F)(F)F)c(C[S+]([O-])c2cccc[n+]2[O-])c1OCC(F)F (centres unmarked)

>  <Tested System>
woolly cupgrass

>  <Cupgrass, Woolly plant response rating>
100

$$$$
>  <Compound>
[O-][n+]1cc(Cl)ccc1[S+]([O-])Cc1c(C(F)(F)F)nn(CC(F)(F)F)c1Cl (centres unmarked)

>  <Tested System>
woolly cupgrass

>  <Cupgrass, Woolly plant response rating>
100

$$$$
>  <Compound>
Cc1cc[n+]([O-])c(S(=O)(=O)Cc2c(C(F)(F)F)nn(C)c2OCC(F)F)c1

>  <Tested System>
woolly cupgrass

>  <Cupgrass, Woolly plant response rating>
100

$$$$
>  <Compound>
CC(Oc1c(CS(=O)(=O)c2cccc[n+]2[O-])c(C(F)(F)F)nn1C)C(F)(F)F (centres unmarked)

>  <Tested System>
woolly cupgrass

>  <Cupgrass, Woolly plant response rating>
98

$$$$
>  <Compound>
C#CCOc1c(C[S+]([O-])c2cccc[n+]2[O-])c(C(F)(F)F)nn1C (centres unmarked)

>  <Tested System>
woolly cupgrass

>  <Cupgrass, Woolly plant response rating>
100

$$$$
>  <Compound>
Cn1nc(C(F)(F)F)c(C(Cl)S(=O)(=O)c2cccc[n+]2[O-])c1OCC(F)(F)F (racemic)

>  <Tested System>
woolly cupgrass

>  <Cupgrass, Woolly plant response rating>
100

$$$$
>  <Compound>
CC(Oc1c(C[S+]([O-])c2ccc(Cl)c[n+]2[O-])c(C(F)(F)F)nn1C)C(F)(F)F (centres unmarked)

>  <Tested System>
woolly cupgrass

>  <Cupgrass, Woolly plant response rating>
100

$$$$
>  <Compound>
CCn1nc(C(F)(F)F)c(CS(=O)(=O)c2cc(C)cc[n+]2[O-])c1OCC(F)(F)F

>  <Tested System>
woolly cupgrass

>  <Cupgrass, Woolly plant response rating>
100

$$$$

// switching to the query compound
Exercise: Fill in the recorded Cupgrass, Woolly plant response rating for this compound, with woolly cupgrass as test system: Cn1nc(C(F)(F)F)c(C[S+]([O-])c2ccc(F)c[n+]2[O-])c1OC(F)F (centres unmarked)
Key: 100
